Hey, just so you know, these numbers are from ChEMBL document CHEMBL3120096.

# tested on: BCRP (ABCG2) (Homo sapiens)
# Sequence (Q9UNQ0 whole entry): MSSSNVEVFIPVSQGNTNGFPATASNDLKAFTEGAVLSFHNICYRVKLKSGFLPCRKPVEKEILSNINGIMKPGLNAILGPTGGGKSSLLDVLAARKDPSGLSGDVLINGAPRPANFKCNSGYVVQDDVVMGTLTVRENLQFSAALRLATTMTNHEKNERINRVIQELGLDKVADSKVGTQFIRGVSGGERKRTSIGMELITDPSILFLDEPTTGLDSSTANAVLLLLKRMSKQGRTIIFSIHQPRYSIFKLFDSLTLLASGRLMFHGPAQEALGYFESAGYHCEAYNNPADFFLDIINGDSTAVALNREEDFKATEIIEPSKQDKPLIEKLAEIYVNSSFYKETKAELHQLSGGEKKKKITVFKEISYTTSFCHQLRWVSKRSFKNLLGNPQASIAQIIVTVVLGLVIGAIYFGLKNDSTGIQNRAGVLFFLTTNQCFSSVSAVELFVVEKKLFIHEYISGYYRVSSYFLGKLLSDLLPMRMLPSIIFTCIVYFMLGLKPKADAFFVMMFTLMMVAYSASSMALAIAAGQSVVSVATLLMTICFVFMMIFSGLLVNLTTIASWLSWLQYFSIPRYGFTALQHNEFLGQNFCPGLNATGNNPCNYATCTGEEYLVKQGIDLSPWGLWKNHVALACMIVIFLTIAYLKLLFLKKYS
# assay details: Activity at BCRP transporter (unknown origin) transfected in MDCK cells assessed as efflux ratio of permeability
# Assay type: ADME, cell-based
reported metric: efflux ratio
// response body must contain only the number

**Q:** Reported efflux ratio, compound CNc1nc(Nc2cn([C@H]3CCN(C4COC4)C[C@H]3F)nc2C)ncc1C(F)(F)F (relative stereo) : ____
**A:** 4.2

====

# assay details: Clearance in rat hepatocytes at 1 uM by LC-MS/MS analysis
# Format: ADME, cell-based, Hepatocyte
Rule: CLhep predicted at 1 µM below 20 mL/min/kg gives y, anything at or above gives n.

Solved entries:
[
  {
    "compound": "CNc1nc(Nc2cnn(C(C)(C)C#N)c2C)ncc1C(F)(F)F",
    "class name": "n"
  },
  {
    "compound": "CNc1nc(Nc2cn(C3(C#N)CC3)nc2C)ncc1C(F)(F)F",
    "class name": "y"
  },
  {
    "compound": "CNc1nc(Nc2cnn(C3COC3)c2C)ncc1C(F)(F)F",
    "class name": "y"
  },
  {
    "compound": "CNc1nc(Nc2cnn(C3CCOCC3)c2C)ncc1C(F)(F)F",
    "class name": "n"
  },
  {
    "compound": "CNc1nc(Nc2cn(C(C)(C)C#N)nc2C)ncc1C(F)(F)F",
    "class name": "n"
  }
]

**Q:** Does the reported CLhep predicted at 1 µM of CNc1nc(Nc2cnn([C@H]3CCN(C4COC4)C[C@@H]3F)c2Cl)ncc1C(F)(F)F (relative stereo) stay below 20 mL/min/kg?
**A:** n

**Q:** Given CNc1nc(Nc2cnn3c2C(C)OCC3)ncc1C(F)(F)F (stereo not given) , is recorded CLhep predicted at 1 µM strictly lower than 20 mL/min/kg?
**A:** y

**Q:** Determine if `CCNc1nc(Nc2cc(C(C)(C)C#N)nn2C)ncc1C(F)(F)F` shows CLhep predicted at 1 µM strictly lower than 20 mL/min/kg.
**A:** y

**Q:** hey, is CLhep predicted at 1 µM for `CNc1nc(Nc2cnn(C3CCN(C4COC4)CC3)c2C)ncc1C(F)(F)F` lower than 20 mL/min/kg or not?
**A:** y

**Q:** Consider the compound `CNc1nc(Nc2cnn(C3(C#N)CC3)c2Cl)ncc1C(F)(F)F` . Is its CLhep predicted at 1 µM strictly less than 20 mL/min/kg?
**A:** n

====

# tested on: Leucine-rich repeat serine/threonine-protein kinase 2 (Homo sapiens)
# Sequence (Q5S007 whole entry): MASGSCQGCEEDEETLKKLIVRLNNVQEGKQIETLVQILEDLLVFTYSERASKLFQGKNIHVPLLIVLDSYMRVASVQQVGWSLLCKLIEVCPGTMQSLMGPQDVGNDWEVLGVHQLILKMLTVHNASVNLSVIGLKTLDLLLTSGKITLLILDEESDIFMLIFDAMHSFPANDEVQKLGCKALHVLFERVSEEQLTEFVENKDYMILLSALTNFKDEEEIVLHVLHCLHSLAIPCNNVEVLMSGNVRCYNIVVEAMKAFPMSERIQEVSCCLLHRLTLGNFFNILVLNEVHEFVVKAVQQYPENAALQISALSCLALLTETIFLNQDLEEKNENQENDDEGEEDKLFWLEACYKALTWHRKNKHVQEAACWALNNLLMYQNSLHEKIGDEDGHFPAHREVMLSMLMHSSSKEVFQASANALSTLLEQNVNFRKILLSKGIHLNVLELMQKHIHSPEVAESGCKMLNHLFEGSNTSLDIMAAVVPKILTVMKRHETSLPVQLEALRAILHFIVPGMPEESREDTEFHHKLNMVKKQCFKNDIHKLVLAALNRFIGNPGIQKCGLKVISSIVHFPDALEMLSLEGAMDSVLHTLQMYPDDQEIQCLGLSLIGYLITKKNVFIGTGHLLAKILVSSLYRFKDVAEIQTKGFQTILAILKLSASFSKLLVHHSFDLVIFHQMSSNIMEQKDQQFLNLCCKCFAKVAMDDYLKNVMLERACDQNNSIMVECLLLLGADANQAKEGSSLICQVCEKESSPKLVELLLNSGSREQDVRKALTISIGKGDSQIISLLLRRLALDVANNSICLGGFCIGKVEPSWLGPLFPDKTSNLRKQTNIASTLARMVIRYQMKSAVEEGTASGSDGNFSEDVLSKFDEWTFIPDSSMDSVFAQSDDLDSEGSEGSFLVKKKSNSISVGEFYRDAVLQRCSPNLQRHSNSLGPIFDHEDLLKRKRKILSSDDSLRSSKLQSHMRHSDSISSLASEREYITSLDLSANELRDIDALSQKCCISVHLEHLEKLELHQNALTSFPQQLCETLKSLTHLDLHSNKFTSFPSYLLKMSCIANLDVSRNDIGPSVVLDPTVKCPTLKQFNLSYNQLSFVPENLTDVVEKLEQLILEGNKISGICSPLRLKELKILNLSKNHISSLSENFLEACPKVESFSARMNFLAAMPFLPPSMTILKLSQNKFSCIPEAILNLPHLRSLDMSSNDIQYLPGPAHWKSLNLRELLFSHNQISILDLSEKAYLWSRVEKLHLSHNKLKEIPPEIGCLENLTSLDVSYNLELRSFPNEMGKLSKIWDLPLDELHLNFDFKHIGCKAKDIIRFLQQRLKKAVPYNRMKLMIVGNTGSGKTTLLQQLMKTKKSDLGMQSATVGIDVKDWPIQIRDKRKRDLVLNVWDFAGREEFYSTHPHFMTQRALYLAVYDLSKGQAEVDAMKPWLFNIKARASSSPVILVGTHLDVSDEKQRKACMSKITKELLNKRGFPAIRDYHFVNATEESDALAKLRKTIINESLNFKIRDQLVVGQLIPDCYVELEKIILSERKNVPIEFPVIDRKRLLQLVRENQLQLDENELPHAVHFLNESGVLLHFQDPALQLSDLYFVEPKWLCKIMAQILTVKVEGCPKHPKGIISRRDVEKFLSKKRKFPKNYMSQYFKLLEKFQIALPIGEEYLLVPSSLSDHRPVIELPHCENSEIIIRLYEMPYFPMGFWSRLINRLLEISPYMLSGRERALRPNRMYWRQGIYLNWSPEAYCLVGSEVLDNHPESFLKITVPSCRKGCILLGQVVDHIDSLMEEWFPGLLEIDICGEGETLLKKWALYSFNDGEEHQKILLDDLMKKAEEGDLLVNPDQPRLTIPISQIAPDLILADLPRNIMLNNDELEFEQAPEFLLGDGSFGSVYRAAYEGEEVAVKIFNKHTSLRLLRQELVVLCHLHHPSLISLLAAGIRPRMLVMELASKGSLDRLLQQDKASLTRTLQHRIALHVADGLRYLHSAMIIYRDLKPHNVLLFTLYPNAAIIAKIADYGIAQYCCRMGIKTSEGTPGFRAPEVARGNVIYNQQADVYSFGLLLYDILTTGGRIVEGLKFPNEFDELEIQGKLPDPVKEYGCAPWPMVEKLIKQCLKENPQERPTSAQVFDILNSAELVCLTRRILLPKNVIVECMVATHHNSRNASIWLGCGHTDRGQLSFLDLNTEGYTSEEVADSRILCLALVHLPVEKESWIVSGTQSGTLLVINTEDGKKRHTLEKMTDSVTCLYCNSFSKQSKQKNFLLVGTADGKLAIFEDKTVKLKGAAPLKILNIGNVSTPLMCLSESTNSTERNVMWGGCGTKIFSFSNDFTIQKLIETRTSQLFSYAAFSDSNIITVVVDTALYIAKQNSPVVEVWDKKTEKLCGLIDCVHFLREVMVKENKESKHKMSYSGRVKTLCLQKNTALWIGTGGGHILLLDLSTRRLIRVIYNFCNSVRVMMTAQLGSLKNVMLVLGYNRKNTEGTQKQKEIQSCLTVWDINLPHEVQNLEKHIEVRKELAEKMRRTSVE
// NB: equality with 30 nM counts as Not satisfied; only IC50 strictly below is Satisfied

[
  {
    "molecule": "CNc1nc(Nc2cnn(C3COC3)c2C)ncc1C(F)(F)F",
    "tested on": "Leucine-rich repeat serine/threonine-protein kinase 2 (Homo sapiens)",
    "class name": "Satisfied"
  },
  {
    "molecule": "CNc1nc(Nc2cnn([C@H]3CCN(C4COC4)C[C@@H]3F)c2Cl)ncc1C(F)(F)F (relative stereo)",
    "tested on": "Leucine-rich repeat serine/threonine-protein kinase 2 (Homo sapiens)",
    "class name": "Satisfied"
  }
]

**Q:** Would you kindly verify if IC50 of CNc1nc(Nc2cnn3c2C(C)OCC3)ncc1C(F)(F)F (stereo not given) is strictly less than 30 nM?
**A:** Not satisfied

**Q:** For this molecule, is IC50 lower than 30 nM? `CNc1nc(Nc2cn(C(C)(C)C(=O)NCC(F)(F)F)nc2C)ncc1C(F)(F)F`
**A:** Not satisfied

**Q:** Is IC50 strictly under 30 nM for the entry CNc1nc(Nc2cn([C@H]3CCN(C4COC4)C[C@H]3F)nc2C)ncc1C(F)(F)F (relative stereo) ?
**A:** Satisfied
